Biological target: T1, canine NGF tagged at the C-terminus with the Flag tag (canine, UniProt A0A8I3PYI3 122-241)
T1 construct: mature; Expressed with baculovirus technology; also called feline NGF (processed form identical)
T1 sequence (A0A8I3PYI3 entry or part of it): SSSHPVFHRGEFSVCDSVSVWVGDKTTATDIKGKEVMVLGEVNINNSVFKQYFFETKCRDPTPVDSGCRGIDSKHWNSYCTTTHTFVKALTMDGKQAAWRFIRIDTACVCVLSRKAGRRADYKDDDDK
Experiment: SPR off-rate assay, Fab-SASA on BSA chip
Measure: Ratio (kd) WT/clones

Below: 2 binders and their reported Ratio (kd) WT/clones.
Req: Report Ratio (kd) WT/clones for AHF17601 (Fab, V domains shown, not shown: small tags and cut ends) VH: DVQLVESGGDLVKPGGSLRLTCVASGLSLTSSSMVWVRQAPGKGLQWVSTIYSNRGTYYTDSVKGRFTISKDNAENTLYLQMNNLKTEDTATYYCAQIYYYDADYLHWYFDEWGQGALVTVSS VL: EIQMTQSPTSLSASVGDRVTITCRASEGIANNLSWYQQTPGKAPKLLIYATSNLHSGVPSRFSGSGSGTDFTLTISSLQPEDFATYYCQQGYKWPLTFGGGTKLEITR please.
Resp: 1680

Req: Report Ratio (kd) WT/clones for AHF17609 (Fab, V domains shown, not shown: small tags and cut ends) VH: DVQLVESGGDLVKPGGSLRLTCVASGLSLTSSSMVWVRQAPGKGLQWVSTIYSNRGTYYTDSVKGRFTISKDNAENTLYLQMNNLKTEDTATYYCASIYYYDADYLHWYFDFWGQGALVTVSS VL: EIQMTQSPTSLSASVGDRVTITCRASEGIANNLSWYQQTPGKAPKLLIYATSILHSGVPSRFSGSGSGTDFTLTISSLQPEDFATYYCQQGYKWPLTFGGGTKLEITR please.
Resp: 1680

We next turn to a different binder, shown below.
Req: Report Ratio (kd) WT/clones for AHF17595 (Fab, V domains shown, not shown: small tags and cut ends) VH: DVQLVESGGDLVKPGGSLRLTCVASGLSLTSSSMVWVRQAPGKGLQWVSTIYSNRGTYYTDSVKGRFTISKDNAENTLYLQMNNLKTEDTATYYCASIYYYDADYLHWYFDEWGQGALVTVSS VL: EIQMTQSPTSLSASVGDRVTITCRASEGIQNNLSWYQQTPGKAPKLLIYATSNLHSGVPSRFSGSGSGTDFTLTISSLQPEDFATYYCQQGYKWPLTFGGGTKLEITR please.
Resp: 1680
